Reported normalized RNA/DNA level without ligand (log10) values follow for various variants
B1: library; a variant is named by its letters at N, in order (parent)
chain: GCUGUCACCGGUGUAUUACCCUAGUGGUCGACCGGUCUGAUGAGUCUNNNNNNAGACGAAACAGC

- Variants of: B1
- Test Details: normalized RNA/DNA level without ligand (relative to sTRSVctl = 100) (log10 (% of sTRSVctl)); ligand: hypoxanthine (xanthine aptamer); higher = less ribozyme self-cleavage, higher mRNA level
- Test Parameters: HEK293T, reporter: mCherry (pCS4076), ligand present: no
No unit in the answer, only the number.

Solved entries:
* CGCUAG | 1.79
* ACGGCG | 1.42
* CACUGC | 1.91
* GCCCUG | 1.49

Ask: Look up normalized RNA/DNA level without ligand (log10): CAACAU
Result: 1.75
